B1: SPOPL (parent)
chain: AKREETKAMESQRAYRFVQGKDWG

Variants of: B1
EXPERIMENT SUMMARY: protein stability index of a GFP-peptide fusion (GPS, HEK-293T) (PSI 1-6); higher = more stable;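 also: lentivirally expressed fusions sorted by FACS into six bins by GFP to DsRed ratio, PSI derived from sequencing read proportions per bin multiplied by bin number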
PARTICULARS: c terminus: a fixed tail appended
PARAMETER MEASURED: protein stability index

- INPUT SEQUENCE: "AEREETKAMESQRAYRFVQGKDWG [K2E]"
  REPORTED: 3.61
- INPUT SEQUENCE: "AKREETKAMESQRAYRFNQGKDWG [V18N]"
  REPORTED: 4.14
- INPUT SEQUENCE: "AKREETKAMESQRAYRFVQGGDWG [K21G]"
  REPORTED: 2.83
- INPUT SEQUENCE: "AKREETKAMESQRAYRFVCGKDWG [Q19C]"
  REPORTED: 2.68
- INPUT SEQUENCE: "AKREETKAMESQREYRFVQGKDWG [A14E]"
  REPORTED: 3.67
- INPUT SEQUENCE: "AKREETMAMESQRAYRFVQGKDWG [K7M]"
  REPORTED: 2.62
- INPUT SEQUENCE: "AKREETKAMESQRDYRFVQGKDWG [A14D]"
  REPORTED: 3.1
- INPUT SEQUENCE: "SKREETKAMESQRAYRFVQGKDWG [A1S]"
  REPORTED: 2.81
- INPUT SEQUENCE: "AKREETKAMESQRAYRFVQGFDWG [K21F]"
  REPORTED: 3.62
- INPUT SEQUENCE: "AKREETKAMESQPAYRFVQGKDWG [R13P]"
  REPORTED: 2.61
- INPUT SEQUENCE: "AKREETKAMESQRAYRFVQGKVWG [D22V]"
  REPORTED: 3.82
- INPUT SEQUENCE: "AKREETKAMESQRHYRFVQGKDWG [A14H]"
  REPORTED: 3.38
- INPUT SEQUENCE: "AKREETKAMESQRAYRFVQGKDTG [W23T]"
  REPORTED: 4.86
- INPUT SEQUENCE: "AKREETKAMESQRAYRFYQGKDWG [V18Y]"
  REPORTED: 3.78
- INPUT SEQUENCE: "AKREETKAMESQRAERFVQGKDWG [Y15E]"
  REPORTED: 4.26
- INPUT SEQUENCE: "AKREETKAMESQRAYRFVQGKFWG [D22F]"
  REPORTED: 2.94
- INPUT SEQUENCE: "AKREETKAMESQRAYRFCQGKDWG [V18C]"
  REPORTED: 3.51
- INPUT SEQUENCE: "AKREETKAMESQRAYRFAQGKDWG [V18A]"
  REPORTED: 4.22
- INPUT SEQUENCE: "AKREETKAMESQRAVRFVQGKDWG [Y15V]"
  REPORTED: 3.92
- INPUT SEQUENCE: "AKREETKAMESQRAYSFVQGKDWG [R16S]"
  REPORTED: 4.04
- INPUT SEQUENCE: "AMREETKAMESQRAYRFVQGKDWG [K2M]"
  REPORTED: 2.06
- INPUT SEQUENCE: "IKREETKAMESQRAYRFVQGKDWG [A1I]"
  REPORTED: 2.59
